EXPERIMENTAL DETAILS: Drug uptake in rat brain at 0.25 mg/kg, iv administered through cassette dosing after 0.25 hrs by LC/MS/MS analysis
Assay type: ADME, organism-based
EXPERIMENTAL CONTEXT: brain, read-out: Drug uptake
QUANTITY MEASURED: concentration at 0.25 h (ng/g)

1: Fc1ccc2c(CN3CCC(F)(F)[C@H](CCc4ccccc4)C3)c[nH]c2c1
2: Fc1ccc2c(CN3CCC(F)(F)[C@H](CCc4ccccc4F)C3)c[nH]c2c1
3: Fc1ccc(CC[C@@H]2CN(Cc3c[nH]c4cc(Cl)ccc34)CCC2(F)F)cc1
Prompt line: Please list these in order of increasing concentration at 0.25 h. Thank you! Answer by listing the labels in the requested order.
Response line: 3, 2, 1
(3: 19.6 ng/g, 2: 38.9 ng/g, 1: 100 ng/g)

1: Cc1ccc(CN2CCC(F)(F)[C@H](CCc3ccccc3)C2)cc1C
2: COc1ccc2c(CN3CCC(F)(F)[C@H](CCc4ccc(F)cc4)C3)c[nH]c2c1
3: COc1ccc2c(CN3CCC(F)(F)[C@H](CCc4cccc(F)c4)C3)c[nH]c2c1
Prompt line: Order the 3 molecules from highest to lowest concentration at 0.25 h. Give the labels in the order requested.
Response line: 1, 3, 2
